# measured-target: biotinylated human ACE2 (Acrobiosystems EP-105 kit) (Homo sapiens, UniProt Q9BYF1 18-740)
# Sequence (Q9BYF1 18-740): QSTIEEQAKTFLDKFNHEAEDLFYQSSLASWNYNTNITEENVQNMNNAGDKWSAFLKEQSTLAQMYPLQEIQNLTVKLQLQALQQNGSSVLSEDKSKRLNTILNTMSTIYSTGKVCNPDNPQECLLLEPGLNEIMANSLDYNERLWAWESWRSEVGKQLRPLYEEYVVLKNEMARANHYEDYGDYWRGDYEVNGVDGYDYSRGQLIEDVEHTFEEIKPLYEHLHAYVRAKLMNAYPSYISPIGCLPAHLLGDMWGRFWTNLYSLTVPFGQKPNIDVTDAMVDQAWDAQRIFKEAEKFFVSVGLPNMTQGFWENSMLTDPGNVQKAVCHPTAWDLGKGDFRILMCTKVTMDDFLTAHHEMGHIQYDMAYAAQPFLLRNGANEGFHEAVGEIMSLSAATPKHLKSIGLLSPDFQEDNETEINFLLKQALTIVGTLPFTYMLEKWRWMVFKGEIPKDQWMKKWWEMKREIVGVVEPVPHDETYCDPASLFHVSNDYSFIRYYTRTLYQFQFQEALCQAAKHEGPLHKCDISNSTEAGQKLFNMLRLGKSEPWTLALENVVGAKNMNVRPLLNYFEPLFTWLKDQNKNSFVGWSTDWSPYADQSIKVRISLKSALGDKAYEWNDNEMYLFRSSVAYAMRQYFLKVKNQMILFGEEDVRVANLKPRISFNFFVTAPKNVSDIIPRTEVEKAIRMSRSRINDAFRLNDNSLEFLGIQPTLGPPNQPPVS
# assay-remarks: competition ELISA
observable: IC50 (nM)
Just the number please, in nM, no unit attached.

INSERT INTO measurements (binder, observable, endpoint_unit, reading) VALUES
  ('Apt 14 (ssDNA) DNA: ATAGTCCCTGGCGTGCTTCCGCGAGAGTTCGACATTCCCGAAAGTACGACGAAAGTCCAGAGCAGGTACGGTGTCA', 'IC50', 'nM', 47);

# input Field request: IC50 | item: Apt 6 (ssDNA) DNA: ATAGTCCCTGGCGTGCTTGACAGCAACACGAACACTGAACGTTCTTAACAAGCCTGGCAGAGCAGGTACGGTGTCA
# output 33
